- tested.on: rec-cMet (Recombinant Human HGF R/c-MET/Fc Chimera) (Homo sapiens, UniProt P08581;P08581 SEQ:1-283,SEQ:1-625)
- Sequence (P08581 25-307, change not shown, chain 1 of 2): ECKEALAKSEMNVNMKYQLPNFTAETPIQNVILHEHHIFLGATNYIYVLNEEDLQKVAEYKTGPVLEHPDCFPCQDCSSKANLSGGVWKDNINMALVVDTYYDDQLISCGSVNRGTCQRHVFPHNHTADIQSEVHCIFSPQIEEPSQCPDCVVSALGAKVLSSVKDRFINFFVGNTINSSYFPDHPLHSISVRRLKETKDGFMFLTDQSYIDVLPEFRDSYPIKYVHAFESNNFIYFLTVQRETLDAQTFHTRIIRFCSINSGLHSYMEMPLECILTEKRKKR
- Sequence (P08581 308-932, change not shown, chain 2 of 2): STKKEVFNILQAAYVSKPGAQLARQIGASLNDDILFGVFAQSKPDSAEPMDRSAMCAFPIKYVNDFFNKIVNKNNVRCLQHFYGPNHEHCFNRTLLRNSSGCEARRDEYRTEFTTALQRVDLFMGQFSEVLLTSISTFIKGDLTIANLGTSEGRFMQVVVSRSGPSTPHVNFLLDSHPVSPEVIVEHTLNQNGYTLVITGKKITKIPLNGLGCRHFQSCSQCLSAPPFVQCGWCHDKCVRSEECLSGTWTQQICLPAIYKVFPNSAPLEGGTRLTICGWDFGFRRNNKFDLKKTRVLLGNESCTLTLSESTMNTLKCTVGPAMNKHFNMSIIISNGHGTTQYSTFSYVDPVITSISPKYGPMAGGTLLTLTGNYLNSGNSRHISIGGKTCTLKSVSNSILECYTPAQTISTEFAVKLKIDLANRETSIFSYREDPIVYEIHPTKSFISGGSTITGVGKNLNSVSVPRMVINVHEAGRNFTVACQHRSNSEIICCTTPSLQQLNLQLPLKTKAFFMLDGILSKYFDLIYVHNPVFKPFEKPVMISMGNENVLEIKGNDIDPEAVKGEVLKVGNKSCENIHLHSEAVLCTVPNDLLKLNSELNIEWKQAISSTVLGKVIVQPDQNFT
- test.name: SPR; rec-cMet 175 nM; also ELISA signal above g1 (FIG. 7)
- test.context: tags: C-terminal HIEGRMD linker, human IgG Fc (100-330), 6xHis; R&D Systems; chain copies: 2 (inferred, Fc chimera)
observed.property: Kd (nM)
Express your answer in nM, writing the number without its unit.

// recorded Kd for GGGCACUGAGAGUUUGACCAGCUAUUAAAUGGGUCGUGACUCAGUG (ssRNA) [g1-trA] : 8.18
